This listing pairs compounds with measured %Inh.
System: ITK
cond: concentration: 1 μM, replicates: in singlicate; n = 1;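 further: KINOMEscan kinase panel screen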

compound	%Inh / %
CS(=O)(=O)CCNCc1ccc(-c2ccc3ncnc(Nc4ccc(OCc5ccccc5)c(Cl)c4)c3c2)o1.Cl	0
FC(F)(F)c1ccc(-c2nn3ncccc3c2-c2ccnc(Nc3cccc(C(F)(F)F)c3)n2)cc1	15
c1ccc(-c2ccc3c(-c4ccnc(Nc5ccc6c(c5)OCCO6)n4)cnn3n2)cc1	9
Fc1ccc(Nc2nccc(-c3c(-c4ccc(Cl)cc4)nn4ncccc34)n2)cc1F	18
CN1c2ccc(-c3ccc(C(=O)NCCO)cc3)cc2-c2[nH]ncc2S1(=O)=O	12
O=C(Nc1n[nH]c2nc(-c3ccco3)c(Br)cc12)c1ccc(CN2CCCC2)cc1.O=C(O)[C@H](O)[C@@H](O)C(=O)O	3
OCCOCCn1ccc2ncnc(Nc3ccc(Oc4cccc(Cl)c4)c(Cl)c3)c21	0
CC(C)(C)OC(=O)NC1CCCN(c2cc(-c3ccc4c(N)n[nH]c4c3)nc(N)n2)C1 (centres unmarked)	6
CCn1c(-c2ccncc2)nc2cnccc21	0
NC(=O)c1sc(-n2cnc3ccccc32)cc1OCc1ccccc1F	8
CSc1nn2c(=O)cc(N3CCOCC3)nc2n1Cc1cccc(Cl)c1Cl	13
COc1ccc(Nc2nccc(N3CCC(NC(=O)c4cccc(NC(C)=O)c4)C3)n2)cc1 (centres unmarked)	0
FC(F)(F)c1ccc(-c2cc(-c3c[nH]nc3-c3ccccn3)ccn2)cc1	11
N#Cc1ccc(Oc2ccc(Nc3ncnc4cc[nH]c34)cc2Cl)cc1	9
O=C(CCO)NCCn1ccc2ncnc(Nc3ccc(Oc4cccc(C(F)(F)F)c4)c(Cl)c3)c21	0
C[C@H]1CC[C@@H](C(=O)Nc2ccccc2)CN1c1cc(-c2ccc3c(N)n[nH]c3c2)nc(N)n1	17
COc1cc2ncnc(Nc3ccc(OCc4ccccc4Br)c(Cl)c3)c2cc1OC.Cl	12

* * *

System: WEE1
cond: concentration: 1 μM, replicates: in singlicate; n = 1
# strict inequality: %Inh < 10% yields Condition met, everything else yields Condition not met

smiles record	assigned class
CSc1nn2c(=O)cc(N3CCOCC3)nc2n1Cc1cccc(Cl)c1Cl	Condition not met
CNc1nccc(-c2c(-c3ccc(F)cc3)ncn2CCCN2CCOCC2)n1	Condition met
Cc1ccc(C)c(NC(=O)NCCNc2ccnc(Nc3ccc(F)cc3)n2)c1	Condition met
COc1ccc(NC(=O)c2ccc(-c3cc(-c4nnc(C)o4)ccc3C)cc2)cc1	Condition met
Clc1ccc(-c2cc(-c3c[nH]nc3-c3ccccn3)ccn2)cc1	Condition not met
Nc1nc(-c2ccccn2)c(-c2ccnc3ccccc23)s1	Condition not met
CCn1c(-c2ccncc2)nc2cnccc21	Condition met
FC(F)(F)c1ccc(-c2cc(-c3c[nH]nc3-c3ccccn3)ccn2)cc1	Condition not met
Oc1ccc2ncnc(Nc3ccc(OCc4ccccc4)cc3)c2c1	Condition met
CC(=O)Nc1n[nH]c2ncc(-c3ccccc3)cc12	Condition met

* * *

System: FGFR4
cond: concentration: 1 μM, replicates: in singlicate; n = 1
readout name: %Inh (%)

compound	readout name	value reported
Cc1cc(N2CCC(NS(=O)(=O)c3ccc(F)cc3)CC2)nc(Nc2cccc(C#N)c2)n1.O=C(O)C(F)(F)F	%Inh	0
Cl.Cn1ccc(-c2cccc(Nc3ccnc4cc(-c5nccs5)ccc34)c2)n1	%Inh	0
Nc1nc(-c2ccc3c(N)n[nH]c3c2)cc(N2CCC[C@@H](C(=O)Nc3ccccc3)C2)n1.O=C(O)C(F)(F)F.O=C(O)C(F)(F)F	%Inh	8
Nc1nc(-c2ccc3c(N)n[nH]c3c2)cc(N2CCCCC2)n1	%Inh	0
Nc1nc(-c2cccnc2)c(-c2ccnc3ccccc23)s1	%Inh	0
FC(F)(F)c1ccc(-c2cc(-c3c[nH]nc3-c3ccccn3)ccn2)cc1	%Inh	0
CSc1nn2c(=O)cc(N3CCOCC3)nc2n1Cc1cccc(Cl)c1Cl	%Inh	15
COc1cc2ncnc(Nc3ccc(OCc4ccccc4Br)c(Cl)c3)c2cc1OC.Cl	%Inh	9
Fc1ccc(-c2ncn(CCCNCc3ccccc3)c2-c2ccncc2)cc1	%Inh	0
Oc1ccc2ncnc(Nc3ccc(OCc4ccccc4)cc3)c2c1	%Inh	66
COC(=O)c1cccc(NC(=O)NCCNc2ccnc(Nc3ccc(F)cc3)n2)c1	%Inh	0
O=C(Nc1ccccc1F)NC1CCN(c2ccnc(Nc3ccc(F)cc3)n2)C1 (stereo not drawn)	%Inh	7
CC(=O)Nc1n[nH]c2ncc(-c3ccccc3)cc12	%Inh	0
Fc1cccc(COc2ccc(Nc3ncnc4sc(-c5ccc[nH]5)cc34)cc2Cl)c1	%Inh	12
O=C(c1ccc(-c2cc(-c3c[nH]nc3-c3ccccn3)ccn2)cc1)N1CCCC1	%Inh	0
COc1ccc(Nc2nccc(N3CCC(NC(=O)c4cccc(NC(C)=O)c4)C3)n2)cc1 (stereo not drawn)	%Inh	3
FC(F)(F)c1cc(Nc2nccc(-c3c(-c4ccc(Cl)cc4)nn4ncccc34)n2)ccc1Cl	%Inh	0
COc1ccc(-c2oc3ncnc(N)c3c2-c2ccc(OC)cc2)cc1	%Inh	3

* * *

System: GAK
cond: concentration: 1 μM, replicates: in singlicate; n = 1
# strict inequality: %Inh < 6% yields TRUE, everything else yields FALSE

molecule	assigned class
Cl.O=S(=O)(c1cccc(F)c1)c1ccc(Nc2ncnc3cc(Br)sc23)cc1Cl	TRUE
COc1ccc(-c2oc3ncnc(N)c3c2-c2ccc(OC)cc2)cc1	FALSE
CCCc1ccc(S(=O)(=O)NC2CCN(c3ccnc(Nc4ccc(OC)cc4)n3)C2)cc1 (centres unmarked)	TRUE
CC(C)(C)OC(=O)NC1CCCN(c2cc(-c3ccc4c(N)n[nH]c4c3)nc(N)n2)C1 (centres unmarked)	FALSE
CCc1nc(-c2cccc(C)c2)c(-c2ccnc(NC(=O)c3ccccc3)c2)s1	FALSE
COc1cc2c(Nc3cccc(NC(=O)c4ccccc4)c3)ncnc2cc1OCCCN1CCOCC1	FALSE
O=C(Nc1ccccc1)Nc1ccc(Oc2ccc3nccn3n2)cc1	TRUE
Nc1nc(-c2ccc3c(N)n[nH]c3c2)cc(N2CCCCC2)n1	TRUE
Cc1cccc(-c2nc(Nc3ccc4[nH]nnc4c3)c3ccccc3n2)n1	TRUE
O=C(Nc1ccccc1F)NC1CCN(c2ccnc(Nc3ccc(F)cc3)n2)C1 (centres unmarked)	TRUE

* * *

Test system: PRKCE
cond: concentration: 1 μM, replicates: in singlicate; n = 1
This listing pairs molecules with measured %Inh.

molecule	system	%Inh / %
C[C@@H]1CCN(C(=O)CO)C[C@@H]1N(C)c1ncnc2[nH]ccc12	PRKCE	54
FC(F)(F)c1ccc(-c2nn3ncccc3c2-c2ccnc(Nc3cccc(C(F)(F)F)c3)n2)cc1	PRKCE	0
C[C@H]1CC[C@@H](C(=O)Nc2ccccc2)CN1c1cc(-c2ccc3c(N)n[nH]c3c2)nc(N)n1	PRKCE	0
O=C(Nc1n[nH]c2nc(-c3ccco3)c(Br)cc12)c1ccc(CN2CCCC2)cc1.O=C(O)[C@H](O)[C@@H](O)C(=O)O	PRKCE	2
O=C(Nc1ccccc1F)NC1CCN(c2ccnc(Nc3ccc(F)cc3)n2)C1 (centres unmarked)	PRKCE	13
Fc1cccc(COc2ccc(Nc3ncnc4nn5ccccc5c34)cc2Cl)c1	PRKCE	0
Cl.O=S(=O)(c1cccc(F)c1)c1ccc(Nc2ncnc3cc(Br)sc23)cc1Cl	PRKCE	45
CS(=O)(=O)CCNCc1nc(-c2ccc3ncnc(Nc4ccc(OCc5cccc(F)c5)c(Cl)c4)c3c2)cs1.Cl	PRKCE	0
Cc1cc(N2CCC(NS(=O)(=O)c3ccc(F)cc3)CC2)nc(Nc2cccc(C#N)c2)n1.O=C(O)C(F)(F)F	PRKCE	0
Nc1nccc2scc(-c3ccc4c(c3)CCN4C(=O)Cc3cc(F)ccc3F)c12	PRKCE	0
CC(C)N1CCC(n2cnc(-c3ccc(F)cc3)c2-c2ccnc(N)n2)CC1	PRKCE	0
CC(C)(C)c1ccc(-n2cnc3c(N)ncnc32)cc1	PRKCE	13
Cn1cc(-c2ccc3c(c2)CCN3C(=O)Cc2cccc(C(F)(F)F)c2)c2c(N)ncnc21	PRKCE	0
Fc1ccc(Nc2nccc(-c3c(-c4ccc(Cl)cc4)nn4ncccc34)n2)cc1F	PRKCE	18
Clc1cc(Nc2ncnc3cc[nH]c23)ccc1OCc1ccccn1	PRKCE	8
COc1ccc(Nc2nccc(N3CCC(NC(=O)c4cccc(NC(C)=O)c4)C3)n2)cc1 (centres unmarked)	PRKCE	16
FC(F)(F)c1cc(Nc2nccc(-c3c(-c4ccc(Cl)cc4)nn4ncccc34)n2)ccc1Cl	PRKCE	17
c1ccc(-c2ccc3c(-c4ccnc(Nc5ccc6c(c5)OCCO6)n4)cnn3n2)cc1	PRKCE	0
CCc1nc(-c2cccc(C)c2)c(-c2ccnc(NC(=O)c3ccccc3)c2)s1	PRKCE	2
Cc1ccc(NC(=O)c2cccc(C#N)c2)cc1-c1ccc(C(=O)Nc2ccncc2)cc1	PRKCE	5
Oc1ccc2ncnc(Nc3ccc(OCc4ccccc4)cc3)c2c1	PRKCE	0
COc1cc2ncnc(Nc3ccc(OCc4ccccc4Br)c(Cl)c3)c2cc1OC.Cl	PRKCE	8
CSc1ccc(NC2=C(c3ccccc3Cl)C(=O)NC2=O)cc1	PRKCE	0
OCCOCCn1ccc2ncnc(Nc3ccc(Oc4cccc(Cl)c4)c(Cl)c3)c21	PRKCE	2
Cc1cccc(-c2nc(Nc3ccc4[nH]nnc4c3)c3ccccc3n2)n1	PRKCE	7
CNc1nccc(-c2c(-c3ccc(F)cc3)ncn2CCCN2CCOCC2)n1	PRKCE	5
Nc1nc(-c2cccnc2)c(-c2ccnc3ccccc23)s1	PRKCE	0
Cl.Fc1ccccc1COc1ccc(Nc2ncnc3ccc(-c4nnc(C(F)(F)F)o4)cc23)cc1Cl	PRKCE	0
Cl.Cl.c1ccc(-c2cc3ccncc3cc2OC2CCNCC2)cc1	PRKCE	82
COC(=O)c1cccc(NC(=O)NCCNc2ccnc(Nc3ccc(F)cc3)n2)c1	PRKCE	6
Cl.c1ccc(Cn2ncc3cc(Nc4ncnc5ccccc45)ccc32)cc1	PRKCE	0
CN1c2ccc(-c3ccc(C(=O)NCCO)cc3)cc2-c2[nH]ncc2S1(=O)=O	PRKCE	12
CCCc1ccc(S(=O)(=O)NC2CCN(c3ccnc(Nc4ccc(OC)cc4)n3)C2)cc1 (centres unmarked)	PRKCE	9
Nc1n[nH]c2nnc(-c3ccccc3)cc12	PRKCE	9
Fc1cccc(COc2ccc(Nc3ncnc4cc[nH]c34)cc2Cl)c1	PRKCE	0
